assay: qHTS assay to identify small molecule agonists of the vitamin D receptor (VDR) signaling pathway - cell viability counter screen (AID 743224); settings: VDR-bla HEK293T viability, CellTiter-Glo luminescence, 16 h; series mostly up to 62.6 µM; note: nearly all actives have a fitted effect of over 50% in size
Inconclusive results are not listed. Activity calls are given as the source filed them. Calls come from the whole dose curve; as a rule, active = well fitted cell-killing curve with a large enough effect in the repeat runs; inconclusive = weak or mixed curves, or effect the other way; inactive = no such curve, though single readings can be large or run the other way.
API: response.call in 1 for active, -1 for inactive

For orientation, consider the following solved cases.
# compound, class-label
measured = [
    ("CCO[Si](OCC)(OCC)OCC", -1),
    ("CC1=Nc2ccccc2C1(C)C", -1),
    ("COC(=O)c1ccccc1C", -1),
    ("OC1CCC(C2CCCCC2)CC1 (stereo not given)", -1),
    ("CC1(C)CCC[C@]2(C)[C@H]3CC(=O)O[C@]3(C)CC[C@@H]12", -1),
]

Outcome logged for `O=S(=O)(O)c1ccc(Nc2nc(Nc3ccc(/C=C/c4ccc(Nc5nc(Nc6ccc(S(=O)(=O)O)cc6)nc(N(CCO)CCO)n5)cc4S(=O)(=O)O)c(S(=O)(=O)O)c3)nc(N(CCO)CCO)n2)cc1` in this assay: -1

Outcome logged for `O=c1oc2cc(O)ccc2c2oc3cc(O)ccc3c12` in this assay: -1

Outcome logged for `C1CCC(SSC2CCCCC2)CC1` in this assay: -1

Outcome logged for `CCCCCCCCCCCCOCCOCCOCCOCCOCCOCCOCCOCCOCCO` in this assay: 1

Outcome logged for `CCC(=O)C(=O)CC` in this assay: -1
